Test system: 945468-187-T-J2-PDC spheroids viability
Assay: Anticancer human tumor 945468-187-T-J2-PDC patient-derived rectal carcinoma cell line growth inhibition [PI3K]
Settings: second compound 3.16 µM; first compound 3.16 µM; stronger effect = lower value; spheroids with HUVEC and MSC
measured-parameter: viability, T/C (%)

>>> endpoint_result("CC(Cn1ccc(-c2ccc(C#N)c(Cl)c2)n1)NC(=O)c1cc(C(C)O)[nH]n1 (stereo not given) + Cc1nc(NC(=O)N2CCCC2C(N)=O)sc1-c1ccnc(C(C)(C)C(F)(F)F)c1")
71.7
>>> endpoint_result("CC1(C)CCC(CN2CCN(c3ccc(C(=O)NS(=O)(=O)c4ccc(NCC5CCOCC5)c([N+](=O)[O-])c4)c(Oc4cnc5[nH]ccc5c4)c3)CC2)=C(c2ccc(Cl)cc2)C1 + CC(Nc1ncnc2nc[nH]c12)c1cc2cccc(Cl)c2c(=O)n1-c1ccccc1")
102
>>> endpoint_result("CNC(=O)c1ccc(N2C(=S)N(c3ccc(C#N)c(C(F)(F)F)c3)C(=O)C2(C)C)cc1F + CC(Nc1ncnc2nc[nH]c12)c1cc2cccc(Cl)c2c(=O)n1-c1ccccc1")
105
>>> endpoint_result("CNC(=O)c1ccc(N2C(=S)N(c3ccc(C#N)c(C(F)(F)F)c3)C(=O)C2(C)C)cc1F + Cc1nc(NC(=O)N2CCCC2C(N)=O)sc1-c1ccnc(C(C)(C)C(F)(F)F)c1")
89
>>> endpoint_result("C#Cc1c(F)ccc2cc(O)cc(-c3ncc4c(N5CC6CCC(C5)N6)nc(OCC56CCCN5CC(F)C6)nc4c3F)c12 (stereo not given) + Cc1nc(NC(=O)N2CCCC2C(N)=O)sc1-c1ccnc(C(C)(C)C(F)(F)F)c1")
94

###

Measured viability, T/C of individual entries
Tested on: 945468-187-T-J2-PDC spheroids viability
Test: Anticancer human tumor 945468-187-T-J2-PDC cell line growth inhibition [PI3K];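 also: spheroids exposed to compounds for seven days before reading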
Conditions: second compound 0.01 µM; first compound 3.16 µM; stronger effect = lower value; spheroids with HUVEC and MSC
measured-parameter: viability, T/C (%)

>>> endpoint_result("Cn1ncc(Cl)c1-c1cc(C(=O)NC(CN)Cc2cccc(F)c2)sc1Cl (centres undefined) + CC(Nc1ccc2c(c1)OCCn1cc(N3C(=O)OCC3C(F)F)nc1-2)C(N)=O")
66.7
>>> endpoint_result("C#Cc1c(F)ccc2cc(O)cc(-c3ncc4c(N5CC6CCC(C5)N6)nc(OCC56CCCN5CC(F)C6)nc4c3F)c12 (centres undefined) + COc1c(OCCCN2CCOCC2)ccc2c3n(c(=NC(=O)c4cnc(N)nc4)nc12)CCN3")
81.1
>>> endpoint_result("CC1(C)CCC(Nc2ncc(C(F)(F)F)c(-c3c[nH]c4c(P(C)(C)=O)c(C#N)ccc34)n2)CN1 (centres undefined) + COc1c(OCCCN2CCOCC2)ccc2c3n(c(=NC(=O)c4cnc(N)nc4)nc12)CCN3")
30.2
>>> endpoint_result("CC(Cn1ccc(-c2ccc(C#N)c(Cl)c2)n1)NC(=O)c1cc(C(C)O)[nH]n1 (centres undefined) + COc1c(OCCCN2CCOCC2)ccc2c3n(c(=NC(=O)c4cnc(N)nc4)nc12)CCN3")
105

###

Test system: 945468-187-T-J2-PDC spheroids viability
Assay: Anticancer human tumor 945468-187-T-J2-PDC cell line growth inhibition [PI3K];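 also: spheroids exposed to compounds for seven days before reading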
Conditions: second compound 0.01 µM; first compound 10 µM; stronger effect = lower value; spheroids with HUVEC and MSC
measured-parameter: viability, T/C

>>> endpoint_result("C[C@@H](NC(=O)c1ncnc(N)c1Cl)c1ncc(C(=O)Nc2cc(C(F)(F)F)c(Cl)cn2)s1 + CC(Nc1ccc2c(c1)OCCn1cc(N3C(=O)OCC3C(F)F)nc1-2)C(N)=O")
"108%"
>>> endpoint_result("CCCS(=O)(=O)Nc1ccc(F)c(C(=O)c2c[nH]c3ncc(-c4ccc(Cl)cc4)cc23)c1F + COc1c(OCCCN2CCOCC2)ccc2c3n(c(=NC(=O)c4cnc(N)nc4)nc12)CCN3")
"22.9%"
>>> endpoint_result("C#Cc1c(F)ccc2cc(O)cc(-c3ncc4c(N5CC6CCC(C5)N6)nc(OCC56CCCN5CC(F)C6)nc4c3F)c12 (stereo not given) + CC(Nc1ccc2c(c1)OCCn1cc(N3C(=O)OCC3C(F)F)nc1-2)C(N)=O")
"86.8%"
>>> endpoint_result("Cn1ncc(Cl)c1-c1cc(C(=O)NC(CN)Cc2cccc(F)c2)sc1Cl (stereo not given) + COc1c(OCCCN2CCOCC2)ccc2c3n(c(=NC(=O)c4cnc(N)nc4)nc12)CCN3")
"53.3%"
>>> endpoint_result("Cn1nccc1Nc1nccc(-c2ccn(C(CO)c3ccc(Cl)c(F)c3)c(=O)c2)n1 (stereo not given) + COc1c(OCCCN2CCOCC2)ccc2c3n(c(=NC(=O)c4cnc(N)nc4)nc12)CCN3")
"84.2%"
